Assay: cell-permeable autofluorescent compounds in GFP channel, dose response, artefact control, imaging, high-content imaging (AID 2124);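 for cell count: cells exposed to compound for 48 hours before fixing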
Settings: cells, GFP-channel autofluorescence, high-content imaging; cell count; at 10 µM
Results filed as inconclusive are left out.
I'd be grateful if you could share measured cell count for these entries.
Give bare numbers, in cells.

CC(=O)N1CCN(Cc2nc3cc(NC(=O)c4ccccc4)ccc3n2C)CC1 | 2960
CCN1CCc2c(sc(NC(=O)Nc3ccc(Cl)c(Cl)c3)c2C(N)=O)C1 | 1910

Please look at the items below and tell me cell count for each one, in order.
1. O=S(=O)([O-])CCC[n+]1c(/C=C\Nc2ccccc2)oc2ccc(-c3ccccc3)cc21
2. Cc1ccc(CN=Cc2[nH]c3ccc(Br)c(Cl)c3c2O)cc1
3. COc1ccccc1N/C=C/c1onc(C)c1[N+](=O)[O-]
4. Nc1c(C(=O)c2ccc(Cl)cc2)sc2nsc(SCCN3CCOCC3)c12
5. CC(C)(CNS(=O)(=O)c1ccc(Cl)cc1)N1CCCCC1

OUT:
[3120, 2930, 3140, 2540, 3730]

Kindly give each listed record's cell count.
1. COc1cc2c(cc1OC)-c1nncn1C(C)(C)C2
2. O=C(CSc1ccc(-c2ccccc2)nn1)NCC1CCCO1 (stereo unspecified)
3. CCc1nnc(NC(=O)CCC(=O)NCc2ccccc2OC)s1
4. N#C/C(=C/c1ccc(N2CCOCC2)o1)c1nc2ccccc2[nH]1

OUT:
3220
2970
2890
2960

---

Tested on: cells, GFP-channel autofluorescence, high-content imaging
Assay: cell-permeable autofluorescent compounds in GFP channel, dose response, artefact control, imaging, high-content imaging (AID 2124)
Results filed as inconclusive are left out. Active and inactive are the calls of the source. No rule for the calls is given here; tested in MIN6 cells.
Your response should consist of one outcome taken from t for active, f for inactive

Record excerpt, results attached:
O=c1c(Cl)c2oc3ccccc3nc-2c2ccccc12 | t
COc1cc([C@@H]2[C@H]3CNCC=C3C(C#N)=C(N)C2(C#N)C#N)ccc1OC(C)C | f
COc1ccc(CN=Cc2[nH]c3ccc(Br)c(Cl)c3c2O)cc1 | f
C=CCN1C(=O)c2cccc3c(N4CCCCC4)ccc(c23)C1=O | t

IN: Tell me the assay call for CC(=O)c1c(N2CCOCC2)[nH]c(-c2ccccc2)nc1=S please.
OUT: t

IN: For Cc1ccc(N2C(=O)C3C(C(=O)c4ccccc4)=NN(c4ccccc4)C3C2=O)cc1 (stereo not given) , what call appears in the results of this test?
OUT: f

IN: Returns: the outcome recorded for CCOCCCNc1nc2c(C)cccn2c(=O)c1/C=C1\SC(=S)N(C(C)CC)C1=O (stereo not given) in this assay.
OUT: f

IN: Lab log entry: COc1ccc(NC(=O)/C(C#N)=C\c2ccc(N3CCOCC3)o2)cc1 — outcome as called in the assay?
OUT: f

IN: Per the records of this test, what outcome belongs to CCCN1CCc2c(sc(NC(=S)NC(=O)c3ccccc3)c2C#N)C1 ?
OUT: f

IN: Answer briefly: the call reported for CCOC(=O)c1sc2cc([N+](=O)[O-])cc(SCC(C)C)c2c1N in this assay.
OUT: t

---

Experiment: cell-permeable autofluorescent compounds in GFP channel, dose response, artefact control, imaging, high-content imaging (AID 2124);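 for cell count: cells exposed to compound for 48 hours before fixing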
Conditions: cells, GFP-channel autofluorescence, high-content imaging; cell count; at 10 µM
Results filed as inconclusive are left out.
# cell count >= 3000 cells gives yes, anything below gives no

Previously resolved entries follow.
COc1c2c(nc3ccccc13)OC(C(C)(O)COC(C)=O)C2 (stereo unspecified) | no
CN(C)C(=O)C12CCC(C)(c3nc4ccccc4nc31)C2(C)C (stereo unspecified) | yes
O=c1ccc(NS(=O)(=O)c2ccccc2)cn1Cc1ccc(Cl)c(Cl)c1 | yes

IN: Check this compound for cell count at or above 3000 cells: CCN1/C(=C/C=C/c2oc3ccc4ccccc4c3[n+]2CC)Oc2ccc3ccccc3c21
OUT: no

IN: Check the entry C=CCNC(=O)C1CC2Cn3c(nc4cc5ccccc5cc43)C2N1C (stereo unspecified) : does cell count equal or exceed 3000 cells?
OUT: yes

IN: Determine whether measured cell count meets or exceeds 3000 cells for CCN(CC)c1ccc(/C=N/c2sc3c(c2C#N)C2CCN3CC2)c(O)c1
OUT: no

IN: Reported cell count at or above 3000 cells? CCC(=O)Nc1ccc2c(c1)ncn2-c1ccccc1
OUT: yes

IN: Quick check: does COC(CNC(=O)c1ccc(Cn2c(=S)[nH]c3cc4c(cc3c2=O)OCO4)cc1)OC have cell count greater than or equal to 3000 cells?
OUT: yes

IN: Check the entry Cc1nn(-c2c(Cl)cc(Cl)cc2Cl)c(=O)c2ccccc12 : does cell count equal or exceed 3000 cells?
OUT: yes

---

Experiment: cell-permeable autofluorescent compounds in GFP channel, dose response, artefact control, imaging, high-content imaging (AID 2124);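 for cell count: cells exposed to compound for 48 hours before fixing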
Conditions: cells, GFP-channel autofluorescence, high-content imaging; cell count; at 10 µM
Results filed as inconclusive are left out.
Classification field: true = cell count at or over 3000 cells; false = cell count under 3000 cells.

COCCNC(=O)Cc1ccc(F)cc1 | false
O=C(OCC(=O)N1CCN(C(=O)c2ccco2)CC1)c1ccccc1OCc1ccccc1 | false
COc1cc2c3nnc(-c4ccccc4)c-3cn(Cc3ccccc3F)c2cc1OC | false

IN: Given CCN(CC)c1ccc(C=C(c2nnnn2-c2ccccc2)c2nnnn2-c2ccccc2)cc1 , state whether its cell count is at least 3000 cells.
OUT: false

IN: Confirm if cell count reported for the compound COc1ccc2cc3cc(C(=O)NCc4ccccn4)oc3nc2c1 is 3000 cells or above.
OUT: true

---

Assay: cell-permeable autofluorescent compounds in GFP channel, dose response, artefact control, imaging, high-content imaging (AID 2124);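 for cell count: cells exposed to compound for 48 hours before fixing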
Details: cells, GFP-channel autofluorescence, high-content imaging; cell count; at 10 µM
Results filed as inconclusive are left out.
Response field label: string, one of true (cell count strictly below 3000 cells) or false.

CCC(=O)OCC(=O)c1c(N)n(Cc2ccccc2)c(=O)n(C)c1=O | true
CCCCNC(=S)NC(=O)c1ccc(Cl)cc1Cl | false
CCOC(=O)CN1C(=O)S/C(=C/c2ccc(N3CCCCC3)o2)C1=O | false
CC(C)NC(=O)/C(C#N)=C/c1ccc(N(C)C)o1 | false

Lab note: next compound to report on.
IN: Regarding CC(C)N1CCc2c(sc(NC(=O)c3ccc(S(=O)(=O)N4CCc5ccccc54)cc3)c2C(N)=O)C1 , kindly confirm whether its cell count is beneath 3000 cells.
OUT: true

---

Record form. Attribute: cell count. Fill in for each entry.
Experiment: cell-permeable autofluorescent compounds in GFP channel, dose response, artefact control, imaging, high-content imaging (AID 2124);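 for cell count: cells exposed to compound for 48 hours before fixing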
Conditions: cells, GFP-channel autofluorescence, high-content imaging; cell count; at 10 µM
Records with an inconclusive call do not appear.
Give bare numbers, in cells.

Would you please look over these solved cases?
O=C(c1cccs1)c1no[n+]([O-])c1C(=O)c1cccs1 | 586
Nc1c(C(=O)N/N=C/c2ccccc2Cl)oc2nc(-c3ccccc3)cc(-c3ccco3)c12 | 2970
COc1cc(N2CCCC2)c(OC)cc1/C=C(/C#N)c1cccc(F)c1 | 2910
O=C(COC(=O)c1ccco1)NCC1CCCO1 (stereo not drawn) | 2790

Take each entry in turn and give its cell count.
1. CC1CN(C(=O)CCn2c(=O)oc3ccccc32)CC(C)O1 (stereo not drawn)
2. O=C(CSc1nc2ccc(Cl)cc2o1)NCc1ccc2c(c1)OCO2
3. CN(C)/C=C1/Nc2ccccc2C1=O
4. CC(C)(C)NC(=S)N/N=C\c1ccc(-c2ccc([N+](=O)[O-])cc2)o1
5. O=C(Cn1ncn2c(cc3ccccc32)c1=O)NCc1ccco1
6. CCCN1C=CC(=CC=C(C#N)C#N)C=C1
7. CN1CCN(c2ccc(/C=C3\C(=O)NC(=S)N(c4cccc(Br)c4)C3=O)o2)CC1

OUT:
3070
3140
3060
3000
2610
3220
3260

---

Exercise: for every item that follows, state its recorded cell count.
Assay: cell-permeable autofluorescent compounds in GFP channel, dose response, artefact control, imaging, high-content imaging (AID 2124);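 for cell count: cells exposed to compound for 48 hours before fixing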
Settings: cells, GFP-channel autofluorescence, high-content imaging; cell count; at 10 µM
Inconclusive results are not listed.
Mention the unit after the number when you answer.

Below are worked cases with known answers.
COc1ccc(C(=O)N(CN2CCCC2=O)c2ccc(C)cc2)cc1 | 3380 cells
COC(=O)C1=C(N)n2c(s/c(=C\c3cccnc3)c2=O)=C(C(=O)OC)C1c1cccnc1 (stereo not given) | 2640 cells
CCc1cc(C(=O)OC)c(NC(=O)CC2Sc3ccc(C(F)(F)F)cc3NC2=O)s1 (stereo not given) | 2390 cells
N#C/C(=C/c1ccc(N2CCOCC2)o1)c1ccc(Cl)cc1 | 1320 cells
CCOC(=O)CC1C(=O)NCCN1c1nc2ccc(C)cn2c(=O)c1/C=C1\SC(=S)N(CC(C)C)C1=O (stereo not given) | 3220 cells
N#C/C(=C/c1ccc(N2CCOCC2)o1)c1ccc(Br)cc1 | 555 cells
CCOc1ccc(NC2=NCC(=O)N2Cc2cccs2)cc1 | 3020 cells
CN1C2CCC1/C(=C/c1cccn1C)C(=O)/C2=C\c1cccn1C | 3280 cells

# return cell count for each item in the list
1. COC1=CCC2([N+](=O)[O-])CN(CCO)CC1([N+](=O)[O-])C2 (stereo not given)
2. COc1cc(N2CCCC2)c(OC)cc1/C=C1/NC(=S)NC1=O

OUT:
3440 cells
2940 cells
